System: Mu-type opioid receptor (Homo sapiens, UniProt P35372) | Read-out: Ki
Sequence (P35372 whole entry): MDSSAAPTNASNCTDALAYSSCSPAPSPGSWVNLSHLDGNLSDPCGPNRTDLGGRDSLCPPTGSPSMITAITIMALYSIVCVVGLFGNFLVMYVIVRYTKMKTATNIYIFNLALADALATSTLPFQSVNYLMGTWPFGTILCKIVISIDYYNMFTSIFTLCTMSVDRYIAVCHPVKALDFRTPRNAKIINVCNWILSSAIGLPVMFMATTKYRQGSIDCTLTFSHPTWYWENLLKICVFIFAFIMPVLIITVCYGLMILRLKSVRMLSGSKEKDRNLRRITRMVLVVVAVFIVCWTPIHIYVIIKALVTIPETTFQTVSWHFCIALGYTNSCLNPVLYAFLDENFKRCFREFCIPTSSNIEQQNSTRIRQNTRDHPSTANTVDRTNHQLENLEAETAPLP
Numeric only. Scale: µM

Look up Ki of `C=C(C)CC(=O)O[C@H]1C[C@@H](C(=O)OC)[C@]2(C)CC[C@H]3C(=O)O[C@H](c4ccoc4)C[C@]3(C)[C@H]2C1=O` and report it.
0.362

Give Ki for `C/C=C/C(=O)O[C@H]1C[C@@H](C(=O)OC)[C@]2(C)CC[C@H]3C(=O)O[C@H](c4ccoc4)C[C@]3(C)[C@H]2C1=O`
0.54

Determine its reported Ki: `C=CC(=O)O[C@H]1C[C@@H](C(=O)OC)[C@]2(C)CC[C@H]3C(=O)O[C@H](c4ccoc4)C[C@]3(C)[C@H]2C1=O`
0.979

----------
Heads up, these compounds all have pKi values measured for Kappa-type opioid receptor (Homo sapiens, UniProt P41145).
Lab note — pKi values are minus log10 of concentrations in M.

Note pKi for the compound shown: `COC(=O)[C@@H]1C[C@H](OC(=O)C=C(C)C)C(=O)[C@H]2[C@@]1(C)CC[C@H]1C(=O)O[C@H](c3ccoc3)C[C@]21C`
6.41

State, in one line, measured pKi of C=CC(C)C(=O)O[C@H]1C[C@@H](C(=O)OC)[C@]2(C)CC[C@H]3C(=O)O[C@H](c4ccoc4)C[C@]3(C)[C@H]2C1=O (stereo partly drawn)
7.54

Supply recorded pKi for `C/C=C(\C)C(=O)O[C@H]1C[C@@H](C(=O)OC)[C@]2(C)CC[C@H]3C(=O)O[C@H](c4ccoc4)C[C@]3(C)[C@H]2C1=O` here.
6.82

Using the record for `COC(=O)[C@@H]1C[C@H](OC(=O)/C=C/c2ccccc2[N+](=O)[O-])C(=O)[C@H]2[C@@]1(C)CC[C@H]1C(=O)O[C@H](c3ccoc3)C[C@]21C` , state its measured pKi.
6.83

Please report pKi for the following compound: `C/C=C/C(=O)O[C@H]1C[C@@H](C(=O)OC)[C@]2(C)CC[C@H]3C(=O)O[C@H](c4ccoc4)C[C@]3(C)[C@H]2C1=O`
7.60

Tell us which pKi value is on record for `COC(=O)[C@@H]1C[C@H](OC(=O)/C=C/c2ccc3c(c2)OCO3)C(=O)[C@H]2[C@@]1(C)CC[C@H]1C(=O)O[C@H](c3ccoc3)C[C@]21C`
6.49

Specify pKi for `COC(=O)[C@@H]1C[C@H](OC(=O)/C=C/c2ccccc2C(F)(F)F)C(=O)[C@H]2[C@@]1(C)CC[C@H]1C(=O)O[C@H](c3ccoc3)C[C@]21C` and stop.
6.89

Assign pKi to the following record: `C=C(C)CC(=O)O[C@H]1C[C@@H](C(=O)OC)[C@]2(C)CC[C@H]3C(=O)O[C@H](c4ccoc4)C[C@]3(C)[C@H]2C1=O`
8.22

Provide pKi value for the following compound: `C=CC(=O)O[C@H]1C[C@@H](C(=O)OC)[C@]2(C)CC[C@H]3C(=O)O[C@H](c4ccoc4)C[C@]3(C)[C@H]2C1=O`
7.74

Output measured pKi for this item: `COC(=O)[C@@H]1C[C@H](OC(=O)/C=C/c2ccc(OC)cc2)C(=O)[C@H]2[C@@]1(C)CC[C@H]1C(=O)O[C@H](c3ccoc3)C[C@]21C`
6.87

Please give the documented pKi of `C=C(C)C(=O)O[C@H]1C[C@@H](C(=O)OC)[C@]2(C)CC[C@H]3C(=O)O[C@H](c4ccoc4)C[C@]3(C)[C@H]2C1=O`
7.47

Provide only the value of recorded pKi for `COC(=O)[C@@H]1C[C@H](OC(=O)/C=C/c2ccc(OC)cc2OC)C(=O)[C@H]2[C@@]1(C)CC[C@H]1C(=O)O[C@H](c3ccoc3)C[C@]21C`
6.79

For `COC(=O)[C@@H]1C[C@H](OC(=O)/C=C/c2ccsc2)C(=O)[C@H]2[C@@]1(C)CC[C@H]1C(=O)O[C@H](c3ccoc3)C[C@]21C` , write its pKi.
6.52
